Field: melting point. Provide a value for each of the compounds that follow.

Consider the reported melting point for these compounds:
Exam item: Reported melting point, compound COc1cc2c(Oc3cccc(NS(=O)(=O)c4ccsc4)c3)ccnc2cc1OCCCN1CCN(C)CC1 : ____
Marked response: 176 to 178 °C

Exam item: Reported melting point, compound COc1cc2c(Oc3cccc(NS(=O)(=O)c4csc5ccccc45)c3)ccnc2cc1OCCCN1CCN(C)CC1 : ____
Marked response: 91 to 93 °C

Exam item: Reported melting point, compound COc1cc2c(Oc3ccc(NS(=O)(=O)c4cc(F)ccc4F)cc3F)ccnc2cc1OCCCCN1CCOCC1 : ____
Marked response: 156 to 158 °C

Please look at the following compound next.
Exam item: Reported melting point, compound COc1cc2c(Oc3ccc(NS(=O)(=O)c4cccc(Oc5ccccc5)c4)cc3F)ccnc2cc1OCCCN1CCCC(C)C1 (stereo not shown) : ____
Marked response: 146 to 147 °C
